biological target: human 5-HT2C receptor (Homo sapiens (Human), UniProt P28335); assay: FLIPR Ca2+ flux functional assay at 5-HT2C (Eurofins DiscoverX); assay type: cell-based; settings: Ca2+ flux, human 5-HT2C, at max concentration
Sequence (P28335 whole entry, looked up): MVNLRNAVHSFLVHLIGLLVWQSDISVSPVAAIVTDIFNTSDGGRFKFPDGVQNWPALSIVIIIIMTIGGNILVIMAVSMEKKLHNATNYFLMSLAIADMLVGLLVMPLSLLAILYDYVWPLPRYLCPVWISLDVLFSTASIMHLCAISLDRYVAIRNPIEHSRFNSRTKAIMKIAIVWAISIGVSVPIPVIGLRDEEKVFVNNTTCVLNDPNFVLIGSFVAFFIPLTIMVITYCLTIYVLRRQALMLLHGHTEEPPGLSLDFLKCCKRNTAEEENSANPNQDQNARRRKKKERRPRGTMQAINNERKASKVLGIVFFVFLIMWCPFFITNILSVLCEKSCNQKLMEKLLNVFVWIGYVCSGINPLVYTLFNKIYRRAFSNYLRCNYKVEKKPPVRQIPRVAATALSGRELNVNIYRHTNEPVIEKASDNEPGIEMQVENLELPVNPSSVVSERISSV
measure: 5-HT2C % Act @ Max Conc. (%)
Give just the numeric value; % need not be written.

Quick note, 5-HT2C % Act @ Max Conc. for CCCCCCc1cc(OC)c(CC(C)N)cc1OC (stereo not shown) [Compound 42, reference compound] landed at 99.8

// COc1cc(Br)c(OC)nc1CCN : 5-HT2C % Act @ Max Conc. value = 95.94

# 5-HT2C % Act @ Max Conc. of COc1cc(CC(C)N)c(OC)cc1I (stereo not shown) [DOI, reference compound] = 92.6

Note to self: 5-HT2C % Act @ Max Conc. recorded for CCCCCc1cc(OC)c(CC(C)N)cc1OC (stereo not shown) [Compound 41, reference compound] was 90.1

Reported 5-HT2C % Act @ Max Conc. ( CCC(N)Cc1nc(OC)c(Cl)cc1OC (stereo not shown) ) = 36.76

Entry under test: CCCCCc1cc(OC)c(CCN)cc1OC [Compound 43, reference compound] . Its 5-HT2C % Act @ Max Conc. was 85.6

Field 5-HT2C % Act @ Max Conc. (entry CCCCCCc1cc(OC)c(CCN)cc1OC [Compound 44, reference compound] ) reads 82.62
